Provenance of the data: the supplement of paper PMC6555819

# reported PBM binding z-score; entries follow
# Test system: THRa homodimer (NR concentration 90 nM)
# Assay details: PBM binding z-score (relative to random genomic background probes); higher = stronger binding; sequences stand for … in GC…GCGATTGACAGCGTAGAATGAAGG
Quantity kind: PBM binding z-score

• TCTTGTCGATCAAAGGTTAAGAAAGCCGAAGCCT = -0.0604
• CCTCGGAGGACAACAGGAGGTCTGAGCTGCCAGA = -0.246
• CCTACTGGGCCAAGGTCATTCATCAGTCAAAGCA = 2.53
• TCTCGGAGGACACGAAGGGTCAGAGCTCGACATC = 0.541
• CAAACTAGGTCACGAAAGGTCAAACTCGAATGAC = 2.82
• GCTTACGGGTCGAAGGTTATAGCATGAATAGAAT = -0.161
• ATCGAAAGGTCGACGAGGTGAGGATACACCGTTT = 2.24
• CGTCCAAGGTCAGAGAGGTCAGTGAGTGCCGAGT = 3.07
• AATACAGGGTAATCGTAGGCCAGAGTACGCACAG = -0.13
• CCTTACGGGTCACTAGGTTATAGCACGACGAGCG = 0.139
• CCAGACAGGTGAGAAGGTAACTTAGCCTCGATTA = 0.316
• CGTACTGGGCCAAAAAGGTCATTGATGCCGATAA = 0.617
• TCTTGTAGATCAAAGGTTAGGAAAGCCGAAGCCT = -0.709
• CTGACTGGGGCAAAGGTTACCATACTCAGTACGA = 0.233
• CCTATTAGTTGACCATAAGGGGAACCGAAGCTCG = 0.694
• TGTCAAAGTTCAAAGCTAACGTAAGTATCCACAC = -0.21
• CCAACTGGGCCACGAAAGGTCATTGATTCAGTGA = 0.917
• TCTATTAGTTGATTAGTGCAACCGAAACAGCGGA = 0.00829
